- Tested on: RXF 393 renal
- Experiment description: NCI tumour cell line growth inhibition, 48 h
Note to self: values exactly at 3 µM are condition met. So TGI at or above 3 µM is condition met, below is condition not met.

> print(dat)
                                    molecule                cat
 1                            S=c1sc2cscc2s1      condition met
 2  Cc1cc(N(CCCNc2ccnc3cc(Cl)ccc23)Cc2ccc3c(c2)OCO3)nc(N2CCCCC2)n1      condition met
 3  COc1c(C)c(C/C=C(\C)CC/C=C(\C)CC/C=C(\C)CCC=C(C)C)c(OC)c2ccccc12      condition met
 4  O=C1CS[C@@](CC(c2ccc(Cl)cc2)c2ccc(Cl)cc2)(c2ccc(Cl)cc2)N1      condition met
 5  COc1ccc(CNc2nc3cc(C(F)(F)F)ccc3nc2-c2ccccc2)cc1OC      condition met
 6  COC(=O)NC(Cc1ccccc1)NC(C)=O (stereo unspecified)      condition met
 7  O=c1cccccc1[O-].O=c1cccccc1[O-].O=c1cccccc1[O-].[Ce+3]      condition met
 8  CC(C)CC12CC3CCC(CNC1=O)C32C (stereo unspecified)      condition met
 9  Nc1cc(S(N)(=O)=O)ccc1SSc1ccc(S(N)(=O)=O)cc1N      condition met
10  O=C(N/N=C/c1ccc(Cl)cc1Cl)c1ccc2nc(-c3ccc(Cl)cc3)[nH]c2c1      condition met
11    CCOC(=O)c1ccc(N2C(=O)Cc3ccccc3C2=O)cc1      condition met
12  CCOC(=O)CCC(NC(=O)Cc1ccc(Oc2nc3ccccc3nc2-c2ccccc2)cc1)C(=O)OCC (stereo unspecified)      condition met
13     O=C(O)CCc1ccc2c(c1)CC1(Cc3ccccc3C1)C2      condition met
14        CNC(=S)NNc1ncnc2c1ncn2-c1ccc(C)cc1      condition met
15  Cc1ncc(C(=O)Nc2ccc(CN3CCN(C)CC3)c(C(F)(F)F)c2)cc1C#Cc1c(N)ncc2ccccc12  condition not met
16  CCOC(=O)C(=O)CC(=O)C1=C(c2ccccc2OC)CC(c2cccs2)=CC1=O      condition met
17  Cc1cc(C)c(S(=O)(=O)N(CCc2cccc(Br)c2)Cc2ccc(-c3cccc(S(C)(=O)=O)c3)cc2)c(C)c1      condition met
18  COc1ccc2c(c1)c1nn(CCN3CCCCC3)c3ccc4c(=O)n(CCN(C)C)c(=O)n2c4c13  condition not met
19     Cc1ccc2nc(-c3ccc(N)c4ccccc34)[nH]c2c1      condition met
20  CCN(CC)CCn1c2ccc(OC)cc2c2sc3cc(OC)ccc3c(=O)c21  condition not met

---

- System: SNB-19 CNS
- Experiment description: NCI tumour cell line growth inhibition, 48 h
Experimental readout: TGI

Compound	Experimental readout	Val
O=C1/C(=C/c2ccccc2)NC(=S)N1CN1CCCCC1	TGI	> 100 µM
COC(=O)[C@]12CC[C@@H](C)[C@H](C)[C@@H]1C1=CC[C@@H]3[C@@]4(C)C(C=O)=C[C@@](C)(COS(C)(=O)=O)C4[C@H](O)C[C@@]3(C)[C@]1(C)CC2 (stereo partly drawn)	TGI	8.44 µM
CC(C)C[C@H](NC(=O)[C@H](Cc1cccc2ccccc12)NS(=O)(=O)c1cccc2cccnc12)B(O)O	TGI	> 35.3 µM
